# TARGET_SYSTEM: Cannabinoid receptor 1 (Homo sapiens)
# Sequence (P21554 whole entry): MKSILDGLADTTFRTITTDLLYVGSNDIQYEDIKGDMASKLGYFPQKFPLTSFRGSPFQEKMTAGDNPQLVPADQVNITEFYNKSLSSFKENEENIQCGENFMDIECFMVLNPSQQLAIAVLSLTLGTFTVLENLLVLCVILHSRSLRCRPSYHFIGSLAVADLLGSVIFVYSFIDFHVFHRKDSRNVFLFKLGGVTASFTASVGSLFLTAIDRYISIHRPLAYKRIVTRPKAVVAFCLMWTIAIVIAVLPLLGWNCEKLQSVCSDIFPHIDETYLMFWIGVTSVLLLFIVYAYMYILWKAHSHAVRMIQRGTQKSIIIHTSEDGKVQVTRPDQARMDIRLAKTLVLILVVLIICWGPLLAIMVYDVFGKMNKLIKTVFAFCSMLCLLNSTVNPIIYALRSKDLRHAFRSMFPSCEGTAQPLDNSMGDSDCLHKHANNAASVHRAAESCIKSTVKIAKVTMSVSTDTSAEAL
# EXPERIMENT_DESCRIPTION: Agonist activity at CB1 receptor (unknown origin) expressed in human HEK293T cells co-expressing beta-arrestin2 assessed as beta-arrestin2 recruitment by measuring maximal luminescence using furimazine as substrate at 100 uM by Nano-Glo live cell reagent assay relative to CP55940
# Assay type: functional, cell-based
# TEST_CONTEXT: filed as agonist
This listing pairs compounds with measured Emax.
QUANTITY_MEASURED: Emax (%)

1. CCCCCn1cc(C(=O)N[C@H](C(N)=O)C(C)C)c2cccnc21    278
2. CCCCn1nc(C(=O)N[C@H](C(N)=O)C(C)C)c2ccccc21    622
3. CCCCCn1cc(C(=O)N[C@H](C(N)=O)C(C)(C)C)c2cccnc21    544
4. CCCCn1nc(C(=O)N[C@@H](Cc2ccccc2)C(N)=O)c2ccccc21    216
5. CCCCn1cc(C(=O)N[C@@H](Cc2ccccc2)C(N)=O)c2ccccc21    50
6. CCCCCn1cc(C(=O)c2cccc3ccccc23)c2ccccc21    310
7. CCCCn1cc(C(=O)N[C@H](C(N)=O)C(C)(C)C)c2cccnc21    406
8. CCCCn1cc(C(=O)N[C@H](C(N)=O)C(C)C)c2ccccc21    390
9. CCCCn1cc(C(=O)N[C@H](C(N)=O)C(C)(C)C)c2ccccc21    756
10. CCCCn1nc(C(=O)N[C@H](C(N)=O)C(C)(C)C)c2ccccc21    728
11. CCCCn1cc(C(=O)N[C@H](C(N)=O)C(C)C)c2cccnc21    44

The values you see were collected from ChEMBL document CHEMBL5107959.
